- measurementTarget: human JAK2 (a.a. 828-1132) (Homo sapiens)
- Construct: JAK2 (a.a. 828-1132); His tag (N); made in house; host or cells: insect cells (baculovirus)
- Sequence (O60674 828-1132): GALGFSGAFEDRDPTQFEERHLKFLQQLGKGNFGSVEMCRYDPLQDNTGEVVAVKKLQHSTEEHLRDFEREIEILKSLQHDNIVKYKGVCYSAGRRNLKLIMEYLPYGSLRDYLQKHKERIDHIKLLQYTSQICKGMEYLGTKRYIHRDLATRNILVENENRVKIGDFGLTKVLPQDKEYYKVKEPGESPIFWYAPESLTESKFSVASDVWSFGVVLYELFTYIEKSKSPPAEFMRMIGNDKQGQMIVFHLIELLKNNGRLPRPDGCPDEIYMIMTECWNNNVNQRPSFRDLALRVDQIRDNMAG
- protocolText: In vitro JAK kinase assay (HTRF, phosphorylation of a biotinylated peptide), JAK2
- Assay type: biochemical
Structures can show the parent of a compound that is named as a salt.
measuredAttribute: IC50 (nM)

Would you please look over these solved cases?
1. O=C(Cc1noc2ccccc12)Nc1ccc2cc1CCc1cccc(c1)Nc1ncc(Cl)c(n1)N2 [Example C45, trifluoroacetate]	321
2. O=C(Cc1ccco1)Nc1ccc2cc1CCc1cccc(c1)Nc1ncc(Cl)c(n1)N2 [Example C36, trifluoroacetate]	42
3. O=C(Cc1ccncc1)Nc1ccc2cc1CCc1cccc(c1)Nc1ncc(Cl)c(n1)N2 [Example C40, bis(trifluoroacetate)]	56
4. O=C1NCc2cccc(c2)Nc2ncc(Cl)c(n2)Nc2cccc1c2	350

(1) O=C(Cc1c[nH]cn1)Nc1ccc2cc1CCc1cccc(c1)Nc1ncc(Cl)c(n1)N2 [Example C33, bis(trifluoroacetate)]
(2) O=S1(=O)Nc2cccc(c2)Nc2nc(ncc2Cl)Nc2cccc1c2 [Example C6, trifluoroacetate]
Q: # min-compare on IC50 between 1 and 2 // return label of chosen record
Result: 1

----------
- measurementTarget: UniProt P29597
- protocolText: TYK2 kinase inhibition (Table A1)
- Type: biochemical
- measurementParameters: Table D1
Structures can show the parent of a compound that is named as a salt.
measuredAttribute: IC50 (nM)

(a) Clc1cnc2nc1Nc1cccc(c1)CNCc1cccc(c1)N2 [Example D73, bis(trifluoroacetate)]
(b) [O-][S+]1CCc2cccc(c2)Nc2ncc(Cl)c(n2)Nc2cccc1c2 (stereo not shown) [Example D23, trifluoroacetate]
Q: Return label of the item with the larger IC50. Candidates: a , b . Write the label of whichever entry you select.
Result: a
(a: 191 nM, b: 23 nM)

----------
- measurementTarget: human JAK2 (a.a. 828-1132) (Homo sapiens)
- Construct: JAK2 (a.a. 828-1132); His tag (N); made in house; host or cells: insect cells (baculovirus)
- protocolText: In vitro JAK kinase assay (HTRF, phosphorylation of a biotinylated peptide), JAK2
- Assay type: biochemical
- measurementParameters: Table B1
pIC50: −log10 of the molar value. Structures can show the parent of a compound that is named as a salt.
measuredAttribute: pIC50

Solved entries:
1. O=C(Nc1cc2cc(c1)Nc1nc(ncc1Cl)Nc1cccc(c1)CC2)NC1CCCC1 [Example B215, trifluoroacetate]	7.37
2. O=C(Nc1ccc2cc1CCc1cccc(c1)Nc1ncc(Cl)c(n1)N2)c1cccs1 [Example B34, trifluoroacetate]	9.00

(P) CCc1ccccc1NC(=O)Nc1ccc2cc1CCc1cccc(c1)Nc1ncc(Cl)c(n1)N2 [Example B97, trifluoroacetate]
(Q) Cn1ccc(C(=O)N2CC[C@H](NC(=O)Nc3ccc4cc3CCc3cncc(c3)Nc3ncc(Cl)c(n3)N4)C2)n1 [Example B272, bis(trifluoroacetate)]
Q: Lowest pIC50? choose P or Q Mark your answer with the label of the selected entry.
Result: Q

----------
- measurementTarget: TYK2 (Homo sapiens, UniProt P29597)
- Sequence (P29597 whole entry): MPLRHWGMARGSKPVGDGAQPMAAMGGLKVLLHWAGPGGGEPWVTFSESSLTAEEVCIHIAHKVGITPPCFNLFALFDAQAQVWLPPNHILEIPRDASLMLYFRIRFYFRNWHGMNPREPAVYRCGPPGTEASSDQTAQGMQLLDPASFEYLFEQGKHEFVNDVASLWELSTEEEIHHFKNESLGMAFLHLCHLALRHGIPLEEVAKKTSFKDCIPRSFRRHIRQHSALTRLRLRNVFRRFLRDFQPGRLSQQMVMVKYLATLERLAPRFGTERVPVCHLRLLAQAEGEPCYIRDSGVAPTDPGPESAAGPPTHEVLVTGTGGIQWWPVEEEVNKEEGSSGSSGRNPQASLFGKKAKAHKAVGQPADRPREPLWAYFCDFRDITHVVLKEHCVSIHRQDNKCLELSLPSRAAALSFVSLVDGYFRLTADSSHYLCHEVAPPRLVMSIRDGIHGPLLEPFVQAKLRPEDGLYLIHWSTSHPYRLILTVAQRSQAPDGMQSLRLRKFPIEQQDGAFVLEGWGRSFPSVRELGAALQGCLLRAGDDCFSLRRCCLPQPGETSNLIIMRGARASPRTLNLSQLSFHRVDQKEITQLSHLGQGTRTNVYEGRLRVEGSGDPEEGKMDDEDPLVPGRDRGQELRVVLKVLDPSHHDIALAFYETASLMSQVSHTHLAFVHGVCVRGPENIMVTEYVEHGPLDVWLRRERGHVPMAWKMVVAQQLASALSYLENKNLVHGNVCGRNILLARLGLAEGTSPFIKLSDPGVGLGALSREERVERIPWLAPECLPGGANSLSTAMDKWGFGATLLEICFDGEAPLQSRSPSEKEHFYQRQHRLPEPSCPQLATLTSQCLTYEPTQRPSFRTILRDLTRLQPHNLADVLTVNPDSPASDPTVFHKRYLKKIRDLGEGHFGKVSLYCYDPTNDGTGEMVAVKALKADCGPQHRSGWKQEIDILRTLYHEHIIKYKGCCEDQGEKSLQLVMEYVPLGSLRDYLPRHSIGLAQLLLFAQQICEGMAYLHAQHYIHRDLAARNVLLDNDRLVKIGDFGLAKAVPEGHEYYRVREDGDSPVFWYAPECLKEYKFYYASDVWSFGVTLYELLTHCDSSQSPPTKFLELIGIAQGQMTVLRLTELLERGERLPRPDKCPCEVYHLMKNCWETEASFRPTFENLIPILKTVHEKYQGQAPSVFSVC
- protocolText: TYK2 kinase inhibition (Table A1)
- Assay type: biochemical
- measurementParameters: Table B1
Where a name gives a salt, the structure may show the parent alone.
measuredAttribute: IC50 (nM)

Here are 3 compounds together with their reported answers.
1. O=S(=O)(Nc1ccc2cc1CCc1cccc(c1)Nc1ncc(Cl)c(n1)N2)c1ccccc1Cl [Example B137, trifluoroacetate]	0.27
2. O=C(O)c1cccc(S(=O)(=O)Nc2ccc3cc2CCc2cccc(c2)Nc2ncc(Cl)c(n2)N3)c1 [Example B159, trifluoroacetate]	1.6
3. CCOC(=O)c1coc(Nc2ccc3cc2CCc2cccc(c2)Nc2ncc(Cl)c(n2)N3)n1 [Example B278, bis(trifluoroacetate)]	222

(1) O=C(Nc1ccc2cc1CCc1cccc(c1)Nc1ncc(Cl)c(n1)N2)c1ccno1 [Example B53, trifluoroacetate]
(2) O=C(Nc1ccccc1)Nc1cc2cc(c1)Nc1nc(ncc1Cl)Nc1cccc(c1)CC2 [Example B202, trifluoroacetate]
(3) CN(C)C(=O)Nc1ccc2cc1CCc1cccc(c1)Nc1ncc(Cl)c(n1)N2 [Example B239, trifluoroacetate]
(4) Cc1cccc(S(=O)(=O)Nc2ccc3cc2CCc2cccc(c2)Nc2ncc(Cl)c(n2)N3)c1 [Example B148, trifluoroacetate]
Q: Please put the entries in order of rising IC50. Write the labels, ordered according to the request.
Result: 4, 1, 3, 2
(4: 0.53 nM, 1: 8 nM, 3: 24 nM, 2: 205 nM)

----------
- measurementTarget: human JAK1 (a.a. 837-1142) (Homo sapiens, UniProt P23458)
- Construct: human JAK1 (a.a. 837-1142); His tag (N); made in house; host or cells: insect cells (baculovirus)
- Sequence (P23458 849-1154): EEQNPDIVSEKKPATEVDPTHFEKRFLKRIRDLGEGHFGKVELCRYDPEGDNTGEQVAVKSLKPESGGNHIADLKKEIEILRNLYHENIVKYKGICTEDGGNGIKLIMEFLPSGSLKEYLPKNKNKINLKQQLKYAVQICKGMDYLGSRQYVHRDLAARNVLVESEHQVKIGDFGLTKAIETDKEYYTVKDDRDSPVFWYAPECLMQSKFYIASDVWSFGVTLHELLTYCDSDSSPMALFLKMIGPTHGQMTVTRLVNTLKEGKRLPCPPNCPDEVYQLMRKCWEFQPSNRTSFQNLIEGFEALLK
- protocolText: In vitro JAK kinase assay (HTRF, phosphorylation of a biotinylated peptide), JAK1
- Type: biochemical
- measurementParameters: Table B1; read-out: JAK1 IC50
pIC50: −log10 of the molar value. Where a name gives a salt, the structure may show the parent alone.
measuredAttribute: pIC50

1) Cc1oncc1S(=O)(=O)N1CCC(CN(C)Cc2ccc3cc2CCc2cncc(c2)Nc2ncc(Cl)c(n2)N3)CC1 [Example B342, tris(trifluoroacetate)]	8.11
2) O=C(Nc1ccc2cc1CCc1cccc(c1)Nc1ncc(Cl)c(n1)N2)c1cccnc1 [Example B30, bis(trifluoroacetate)]	9.06
3) O=C(Nc1ccc2cc1CCc1cncc(c1)Nc1ncc(Cl)c(n1)N2)N1CCN(c2ccccn2)CC1 [Example B289, tris(trifluoroacetate)]	7.77
4) O=C(NCCN1CCCC1=O)Nc1ccc2cc1CCc1cccc(c1)Nc1ncc(Cl)c(n1)N2 [Example B257, trifluoroacetate]	8.14

(I) Cc1cc(C(=O)Nc2ccc3cc2CCc2cccc(c2)Nc2ncc(Cl)c(n2)N3)nc(Cl)n1 [Example B280, bis(trifluoroacetate)]
(II) O=C(Nc1ccccn1)Nc1ccc2cc1CCc1cccc(c1)Nc1ncc(Cl)c(n1)N2 [Example B253, bis(trifluoroacetate)]
Q: Which shows the larger pIC50 value: I or II ? // output: label of the selected item
Result: II
(II: 7.05, I: 6.56)

----------
- measurementTarget: human JAK3 (a.a. 781-1124) (Homo sapiens)
- Construct: JAK3 (a.a. 781-1124); His tag (N); made in house; host or cells: insect cells (baculovirus)
- Sequence (P52333 781-1124): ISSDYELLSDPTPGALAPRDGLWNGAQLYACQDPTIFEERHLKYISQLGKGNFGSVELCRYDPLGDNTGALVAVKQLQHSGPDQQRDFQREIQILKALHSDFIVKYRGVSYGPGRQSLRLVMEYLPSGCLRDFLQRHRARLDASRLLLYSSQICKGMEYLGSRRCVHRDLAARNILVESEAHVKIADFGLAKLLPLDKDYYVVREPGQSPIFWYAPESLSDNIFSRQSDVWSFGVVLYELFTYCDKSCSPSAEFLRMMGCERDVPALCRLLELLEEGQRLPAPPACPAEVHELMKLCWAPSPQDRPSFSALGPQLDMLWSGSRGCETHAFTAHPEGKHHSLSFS
- protocolText: In vitro JAK kinase assay (HTRF, phosphorylation of a biotinylated peptide), JAK3
- Format: biochemical
- measurementParameters: Table D1
pIC50: −log10 of the molar value. Where a name gives a salt, the structure may show the parent alone.
Entries and their measured pIC50 follow.

1) O=C(COc1ccc2cc1CCc1cncc(c1)Nc1ncc(Cl)c(n1)N2)N1CCN(c2ccc(F)cc2)CC1 [Example D242, tris(trifluoroacetate)]	< 6.40
2) O=C(Nc1cccc(F)c1)N1CCC(CCOc2ccc3cc2CCc2cncc(c2)Nc2ncc(Cl)c(n2)N3)CC1 [Example D169, bis(trifluoroacetate)]	< 6.40
3) O=C(CC1CN(C(=O)c2nc[nH]n2)C1)Nc1ccc2cc1CCc1cncc(c1)Nc1ncc(Cl)c(n1)N2 [Example D147, bis(trifluoroacetate)]	< 6.00

Q: Given the entry O=C(NCc1ccccc1)Nc1cc2cc(c1)OCCSc1cccc(c1)Nc1nc(ncc1Cl)N2 [Example D66, trifluoroacetate] , report its measured pIC50.
Result: 8.02

Q: Entry under review: CS(=O)(=O)c1ccc(-c2cc3cc(c2)Nc2ncc(Cl)c(n2)Nc2cccc(c2)OCC3)cc1 [Example D29, trifluoroacetate] . Reported pIC50?
Result: 7.85

Q: Quick one: pIC50 of O=C(Nc1ccccc1)c1cc2cc(c1)OCCSc1cccc(c1)Nc1nc(ncc1Cl)N2 [Example D50, trifluoroacetate] ?
Result: 7.26

----------
- measurementTarget: human JAK2 (a.a. 828-1132) (Homo sapiens)
- Construct: JAK2 (a.a. 828-1132); His tag (N); made in house; host or cells: insect cells (baculovirus)
- protocolText: In vitro JAK kinase assay (HTRF, phosphorylation of a biotinylated peptide), JAK2
- Assay type: biochemical
Structures can show the parent of a compound that is named as a salt.
measuredAttribute: IC50 (nM)

// solved cases for IC50 follow
1. Cc1cc(C(=O)N2CCC(CC(=O)Nc3ccc4cc3CCc3cccc(c3)Nc3ncc(C)c(n3)N4)CC2)no1 [Example C54, trifluoroacetate]	199
2. Clc1cnc2nc1Nc1cccc(c1)CCc1cncc(c1)N2 [Example C19, bis(trifluoroacetate)]	7
3. Cn1cc(CC(=O)Nc2ccc3cc2CCc2cccc(c2)Nc2ncc(Cl)c(n2)N3)c2ccccc21 [Example C37, trifluoroacetate]	276
4. Fc1cnc2nc1Nc1cccc(c1)CCc1cc(ccn1)N2	17
5. Cc1cc(C(=O)N2CCC(CC(=O)Nc3ccc4cc3CCc3cncc(c3)Nc3ncc(C)c(n3)N4)CC2)no1 [Example C51, bis(trifluoroacetate)]	371

(1) O=C(Cc1c[nH]c2ccccc12)Nc1ccc2cc1CCc1cccc(c1)Nc1ncc(Cl)c(n1)N2 [Example C29, bis(trifluoroacetate)]
(2) Clc1cnc2nc1Nc1cccc(c1)/C=C\c1cncc(c1)N2 [Example C20, bis(trifluoroacetate)]
Q: I'm curious, which of these has a smaller IC50 number: 1 or 2 ? Answer by quoting the chosen item's label.
Result: 2
